The measurements presented in this section are drawn from PubChem BioAssay (NCI).

Test system: A549/ATCC NSCLC
Assay: NCI-60 one-dose screen, 48 h
Conditions: 10 µM unless noted
The panel holds about 83,000 compounds, 20% with a hit somewhere; the sample as a whole holds those more often. Calls of active or inactive are those of the source. The calls were made as follows: active = growth percent below 10; inactive = the rest.
Hi there, use one of these labels in your reply, thanks! active, inactive

Recorded results for 5 compounds are shown here.
c1ccc2cc3nc4cc5ccccc5cc4nc3cc2c1	inactive
Fc1c[c-]c(-c2ccccn2)c(F)c1.[CH3-].[Pt+2].c1ccc(P(C[PH+](c2ccccc2)c2ccccc2)c2ccccc2)cc1	active
Cc1ccc(Cc2cnc(NC(=O)c3ccc4noc(-c5ccccc5)c4c3)s2)cc1	inactive
COC(=O)[C@]12CC[C@@H](C)[C@H](C)[C@@H]1C1=CC[C@@H]3[C@@]4(C)C(C=O)=C[C@@](C)(COC(C)=O)[C@@H]4C(=O)C[C@@]3(C)[C@]1(C)CC2	inactive
COc1cccc(Nc2nccc(Nc3ccc4[nH]ncc4c3)n2)c1	active

Hey, what did the test say about Nc1nc(N)c2c(n1)NC(c1ccccc1)C1CCc3ccccc3C1=N2 (stereo not drawn) ?
inactive

Hey, what did the test say about CC(C)C(NC(=O)C1(NC(=O)OCc2ccccc2)CCCC1)C(=O)O (stereo not drawn) ?
inactive

Hey, what did the test say about O=C(CCCCCCN1CC(=O)N2[C@@H](c3ccccc3Cl)c3[nH]c4ccccc4c3C[C@H]2C1=O)NO ?
inactive

Hey, what did the test say about CN1CCN(C(=O)c2c3c(n4ccccc24)C(=O)c2ncccc2C3=O)CC1 ?
inactive

Hey, what did the test say about Cc1cccc(Cc2cnc(NC(=O)c3ccc4nnsc4c3)s2)c1 ?
inactive

Hey, what did the test say about COc1ccc(OC)c2c1[nH]c(=O)c1c3ncccc3cn21 ?
inactive

Hey, what did the test say about C=C1C(=O)O[C@H]2[C@H]1CC/C(COC(=O)C(=O)c1c[nH]c3ccc(OC)cc13)=C\CC[C@@]1(C)O[C@@H]21 ?
active

Hey, what did the test say about O=C1Nc2ccc(F)cc2C12Nc1cc(Cl)ccc1S2 (stereo not drawn) ?
inactive

Hey, what did the test say about O=C(N=c1oc2ccccc2cc1-c1cc2ccccc2[nH]1)c1ccc(Cl)cc1 ?
inactive

Hey, what did the test say about Cc1ccc(S(=O)(=O)NCC[C@@H]2C[C@H]2c2cc3ccccc3s2)cc1 ?
inactive

Hey, what did the test say about COc1cc(/C=C2\C(=O)ON=C2C)cc(OC)c1OC ?
inactive

---

System: LOX IMVI melanoma
Assay: NCI-60 one-dose screen, 48 h
Conditions: 10 µM unless noted
This is part of a sample that, as a whole, favours compounds with a hit. Of some 83,000 tested, about 20% had one in any assay. The source made the active and inactive calls. Rule for the calls: active = growth percent below 10; inactive = the rest.
Hi there, use one of these labels in your reply, thanks! active, inactive

COc1ccc(C2C(c3nn[nH]n3)=C(N)Oc3c2ccc2ccccc32)cc1 (stereo not drawn)	inactive
COc1cc(C2CC(=O)Nc3c2c(C)nn3-c2nc3ccccc3[nH]2)c(OC)c(OC)c1OC (stereo not drawn)	inactive
O=C1C=C[C@]2(C[C@@H](c3cccc(C(F)(F)F)c3)O[C@@H](c3cccc(C(F)(F)F)c3)O2)O1	active
COc1nc2c(c(=O)n1C)CN(c1ccccc1)C(=O)CN2C	inactive
COc1ccc(NC(=O)CSc2nc(C)c(C(C)=O)n2-c2ccc([N+](=O)[O-])cc2)cc1	inactive

Hey, what did the test say about CC/C=C\C/C=C\C[C@H](O)C/C=C1/C(=O)C=C[C@@H]1C/C=C\CCCC(=O)O ?
active

Hey, what did the test say about COc1cccc(-c2nc3sccn3c2-c2ccnc(NCCNS(=O)(=O)c3cccc(F)c3)c2)c1 ?
inactive

Hey, what did the test say about O=C(N=c1oc2ccccc2cc1-c1cc2ccccc2[nH]1)c1ccc(Cl)cc1 ?
inactive

Hey, what did the test say about COc1cccc2c1C(=O)c1c(O)c3c(c(O)c1C2=O)CC(O)(/C(C)=N/NC(=O)CCCCC(=O)N/N=C(\C)C1(O)Cc2c(O)c4c(c(O)c2C(OC2CC(N)C(O)C(C)O2)C1)C(=O)c1c(OC)cccc1C4=O)CC3OC1CC(N)C(O)C(C)O1 (stereo not drawn) ?
active

Hey, what did the test say about CNC(=O)CCN1CCN(CC/C=C2\c3ccccc3Sc3ccc(Cl)cc32)CC1 ?
inactive

Hey, what did the test say about Cc1cc(NCc2cc(Nc3ccnc4cc(Cl)ccc34)ccc2F)nc(Cl)n1 ?
inactive

Hey, what did the test say about COc1cccc(-c2nn(-c3ccccc3)cc2-c2ccnc(NCCNC(=O)c3ccccc3)c2)c1 ?
inactive

Hey, what did the test say about NC1=NCc2nc3ccccc3c(=O)n2C1 ?
inactive

Hey, what did the test say about Cc1cc(C(=O)c2ccccc2)c(C)c2c1[nH]c1ccc(Cl)cc12 ?
inactive

Hey, what did the test say about N#C/C(=C/C=C/c1cccc(Cl)c1)S(=O)c1ccccc1 (stereo not drawn) ?
active

---

Tested on: BT-549 breast
Experiment: NCI-60 one-dose screen, 48 h (100 = growth as untreated, 0 = no growth, -100 = all killed)
Settings: 10 µM unless noted
About 83,000 compounds went through this panel and 20% of them were active in at least one assay; those are over-represented in the sample as a whole.
Rule: growth under 50% gives F, otherwise T.

CC/C=C/C/C=C/C/C=C/C/C=C/C/C=C/C/C=C/CCC(=O)Nc1ccn([C@@H]2O[C@H](CO)[C@@H](O)C2(F)F)c(=O)n1	F
CCN1C(=O)N(CC)C2Nn3c(s/c(=C\c4ccc(Cl)cc4Cl)c3=O)=NC21 (stereo unspecified)	F
CC(C)(C)CC(C)(C)Nc1c(-c2ccncc2)nc2cnccn12	T
COc1ccc2c(c1)C(=O)/C(=C/c1cccc(OCC(=O)Nc3nc(C)c(C)s3)c1)O2	F
CCC1(C2CCCC2)NC(=O)NC1=O (stereo unspecified)	T

Next:
Does the compound CC(C)(C)OC(=O)Nc1ccc2c(c1)C(NC(=O)Nc1cccc(C#N)c1)CC(C)(C)O2 (stereo unspecified) have recorded growth that is 50% or more?
F

---

Tested on: PC-3 prostate
Experiment: NCI-60 one-dose screen, 48 h (100 = growth as untreated, 0 = no growth, -100 = all killed)
Settings: 10 µM unless noted
Compounds without any hit were thinned out: in the full panel of roughly 83,000, 20% have a hit.
MEASURE: growth (%)
Please give a number only; it is taken to be in %.

Cc1cc(=O)[nH]c(N=Nc2c(O)[nH]c3ccccc23)n1	97.9
C=C(C)[C@@H]1CC[C@]2(C(=O)NC3CCCCC3)CC[C@]3(C)[C@H](CC[C@@H]4[C@@]5(C)CCCNC(C)(C)[C@@H]5CC[C@]43C)[C@@H]12	49.7

Attention now turns to another entry.
Note to self: growth recorded for Cc1ccccc1NC(=O)N/C(N)=N/c1nc(-c2cccc([N+](=O)[O-])c2)cs1 was 58

---

System: SF-539 CNS
Assay: NCI-60 one-dose screen, 48 h
Conditions: 10 µM unless noted
About 83,000 compounds went through this panel and 20% of them were active in at least one assay; those are over-represented in the sample as a whole. Active and inactive are the calls of the source. Rule for the calls: active = growth percent below 10; inactive = the rest.
Hi there, use one of these labels in your reply, thanks! Yes for active, No for inactive

O=C(/C=C/c1c(Cl)nc2sccn12)c1nccs1	No
Cc1ccc(-n2c(-c3ccccc3)c(-c3ccccc3)c3c(SCC(=O)n4[nH]c(N)cc4=O)ncnc32)cc1	No
C[C@@]1(CCC#N)[C@H]2CC[C@@H]3[C@H]4[C@H](C(=O)/C=C/c5cccnc5)CC[C@]4(C#N)CC[C@@]3(C)[C@]2(C)CC[C@H]1C(=O)/C=C/c1cccnc1	No
CCCCCCCCCCCC(c1ccccc1)[N+](C)(C)C (stereo not given)	No
Cc1ccc(Nc2nc(N)nc(CSCC(=O)NN)n2)cc1	No
COC(=O)[C@]12CC[C@@H](C)[C@H](C)[C@@H]1C1=CC[C@@H]3[C@@]4(C)C(C=O)=C[C@@](C)(CO)[C@@H]4[C@H](O)C[C@@]3(C)[C@]1(C)CC2	Yes

Next:
Hey, what did the test say about CC1O[C@@H](OC2[C@H](OC(=O)/C=C/c3ccc(O)c(O)c3)C(COC3O[C@H](C)C(O)C(O)[C@@H]3O)O[C@@H](OCCc3ccc(O)c(O)c3)[C@H]2O)[C@@H](O)C(O)[C@H]1O (stereo not given in full) ?
No

---

Tested on: SK-OV-3 ovarian
Experiment: NCI-60 one-dose screen, 48 h
Conditions: 10 µM unless noted
Compounds without any hit were thinned out: in the full panel of roughly 83,000, 20% have a hit. Active and inactive are the calls of the source. How the source made its calls: active means growth percent below 10; inactive means the rest.
Hi there, use one of these labels in your reply, thanks! True = active, False = inactive

Recorded results for 4 compounds are shown here.
COc1nc2c(c(=O)n1C)CN(c1ccccc1)C(=O)CN2C	False
Cc1nn(-c2ccccc2)c2nc3c(c(-c4ccc(Cl)cc4)c12)CNC1(CCSCC1)N3	False
COC1=C(OC)C(=O)C(OC)=C(OC)C1=O	False
CC(=O)n1c(-c2ccc(Cl)cc2)nc2c(c1=O)C(c1ccc(Cl)cc1)c1sc3c(Cl)cccc3c1O2 (stereo not given)	True

Hey, what did the test say about COc1ccc(-c2nc(SCCC(C)C)nc(N/N=C\c3cccc([N+](=O)[O-])c3)c2C#N)cc1 ?
False
